Experiment: Cytotoxicity against human TZM-b1 cells after 3 days by XTT assay
Format: cell-based
Settings: tzm-b1, 72 h
Field: CC50. Provide a value for each of the compounds that follow.
Write the number in µM without appending the unit.

Which measured CC50 value corresponds to Cc1nc(C(NC(=O)C(=O)Nc2ccc(Cl)cc2)C2CCCCN2C)sc1CCO (mixture of isomers) ?
36

Which measured CC50 value corresponds to Cc1nc(C(NC(=O)C(=O)Nc2ccc(Cl)cc2)C2CCCCN2)sc1CCO (mixture of isomers) ?
32.8

Which measured CC50 value corresponds to CNCC(NC(=O)C(=O)Nc1ccc(Cl)cc1)c1nc(C)c(CCO)s1 (racemic) ?
16.6

Which measured CC50 value corresponds to Cc1nc(C(NC(=O)C(=O)Nc2ccc(Cl)cc2)C2CCCN2)sc1CO (mixture of isomers) ?
12.4
